biological target: Human recombinant eIF4E protein (Homo sapiens, UniProt P06730); construct: V28-V217; made in house; host or cells: Escherichia coli BL21 (DE3); experiment: Surface plasmon resonance binding of stapled-peptides to immobilized eIF4E; conditions: SPR, Biacore T200; eIF4E (His tag or w/o tag) amine-coupled on CM5 chip, saturated with m7GTP; HBS-EP+ with 1 mM DTT, 3% DMSO; peptides 3 μM to 1.372 nM; 60 s injection, 120 s dissociation; mean ± SEM from at-least two independent experiments; SEM; read-out: k on
Sequence (P06730 28-217): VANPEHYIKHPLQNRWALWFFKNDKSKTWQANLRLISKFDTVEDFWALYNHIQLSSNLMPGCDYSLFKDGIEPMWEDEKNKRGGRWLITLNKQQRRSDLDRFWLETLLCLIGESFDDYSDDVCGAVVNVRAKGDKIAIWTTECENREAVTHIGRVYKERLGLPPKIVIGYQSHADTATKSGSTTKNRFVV
Bridge positions count the residues as written; N and C are the ends. Square brackets hold non-standard residues; d marks the D form. Peptide text beside a SMILES is read from it. S5 = C=CCCC[C@](C)(N)C(=O)O
Reported kon values for the following molecules.
measuredProperty: kon (M⁻¹ s⁻¹)

CC(=O)N[C@@H](CCCCN)C(=O)N[C@@H](CCCCN)C(=O)N[C@@H](CCCNC(=N)N)C(=O)N[C@@H](Cc1ccc(O)cc1)C(=O)N[C@@H](CO)C(=O)N[C@@H](CCCNC(=N)N)C(=O)N[C@@]1(C)CCCC=CCCC[C@@](C)(C(=O)N[C@@H](Cc2ccccc2)C(=O)N[C@@H](Cc2c[nH]c3ccccc23)C(N)=O)NC(=O)[C@H](CC(C)C)NC(=O)[C@H](CC(C)C)NC(=O)[C@H](CCC(N)=O)NC1=O [sTIP-07] (Ac-KKRYSR[S5]QLL[S5]FW-NH2; staple 7-11) = 650000
CC(=O)N[C@@H](CCCCN)C(=O)N[C@@H](CCCCN)C(=O)N[C@@H](CCCNC(=N)N)C(=O)N[C@@H](Cc1ccc(O)cc1)C(=O)N[C@@H](CO)C(=O)N[C@@H](CCCNC(=N)N)C(=O)N[C@@]1(C)CCCC=CCCC[C@@](C)(C(=O)N[C@@H](Cc2ccccc2)C(=O)N[C@@H](CCCNC(=N)N)C(=O)N[C@@H](CCCNC(=N)N)C(=O)N[C@@H](CCCNC(=N)N)C(N)=O)NC(=O)[C@H](CC(C)C)NC(=O)[C@H](CC(C)C)NC(=O)[C@H](CCC(N)=O)NC1=O [sTIP-09] (Ac-KKRYSR[S5]QLL[S5]FRRR-NH2; staple 7-11) = 2.2e+06
CC(=O)N[C@@H](CCCCN)C(=O)N[C@@H](CCCCN)C(=O)N[C@@H](CCCNC(=N)N)C(=O)N[C@@H](Cc1ccc(O)cc1)C(=O)N[C@@H](CO)C(=O)N[C@@H](CCCNC(=N)N)C(=O)N[C@@H](CCC(=O)O)C(=O)N[C@@H](CCC(N)=O)C(=O)N[C@@H](CC(C)C)C(=O)N[C@@H](CC(C)C)C(=O)N[C@@]1(C)CCCC=CCCC[C@@](C)(C(N)=O)NC(=O)[C@H](CCCNC(=N)N)NC(=O)[C@H](CCC(N)=O)NC(=O)[C@H](Cc2ccccc2)NC1=O [sTIP-10] (Ac-KKRYSREQLL[S5]FQR[S5]-NH2; staple 11-15) = 6.6e+06

* * *

Reported koff values for the following molecules.
molecular target: Human recombinant eIF4E protein (Homo sapiens); construct: V28-V217; made in house; host or cells: Escherichia coli BL21 (DE3); experiment: Surface plasmon resonance binding of stapled-peptides to immobilized eIF4E; conditions: SPR, Biacore T200; eIF4E on CM5 chip, m7GTP; HBS-EP+ with 1 mM DTT, 3% DMSO; mean ± SEM from at-least two independent experiments; SEM; read-out: k off
Bridge positions count the residues as written; N and C are the ends. Square brackets hold non-standard residues; d marks the D form. Peptide text beside a SMILES is read from it. R5 = C=CCCC[C@@](C)(N)C(=O)O; S5 = C=CCCC[C@](C)(N)C(=O)O
measuredProperty: koff (s⁻¹)

CC(=O)N[C@@H](CCCNC(=N)N)C(=O)N[C@@H](Cc1ccc(O)cc1)C(=O)N[C@@H](CO)C(=O)N[C@@H](CCCNC(=N)N)C(=O)N[C@@]1(C)CCCC=CCCC[C@@](C)(C(=O)N[C@@H](CC(C)C)C(=O)N[C@@H](Cc2ccccc2)C(=O)N[C@@H](CCCNC(=N)N)C(N)=O)NC(=O)[C@H](CC(C)C)NC(=O)[C@H](CC(C)C)NC(=O)[C@H](CCC(N)=O)NC1=O [sTIP-14] (Ac-RYSR[S5]QLL[S5]LFR-NH2; staple 5-9) = 0.058
CC(=O)N[C@@H](CCCCN)C(=O)N[C@@H](CCCCN)C(=O)N[C@@H](CCCNC(=N)N)C(=O)N[C@@H](Cc1ccc(O)cc1)C(=O)N[C@@H](CO)C(=O)N[C@@H](CCCNC(=N)N)C(=O)N[C@@]1(C)CCCC=CCCC[C@@](C)(C(=O)N[C@@H](Cc2ccccc2)C(=O)N[C@@H](CCCNC(=N)N)C(=O)N[C@@H](CCCNC(=N)N)C(=O)N[C@@H](CCCNC(=N)N)C(N)=O)NC(=O)[C@H](CC(C)C)NC(=O)[C@H](CC(C)C)NC(=O)[C@H](CCC(N)=O)NC1=O [sTIP-09] (Ac-KKRYSR[S5]QLL[S5]FRRR-NH2; staple 7-11) = 0.016
CC(=O)N[C@@H](CCCCN)C(=O)N[C@@H](CCCCN)C(=O)N[C@@H](CCCNC(=N)N)C(=O)N[C@@H](Cc1ccc(O)cc1)C(=O)N[C@@H](CO)C(=O)N[C@@H](CCCNC(=N)N)C(=O)N[C@]1(C)CCCC=CCCC[C@](C)(C(=O)N[C@@H](Cc2ccccc2)C(N)=O)NC(=O)[C@H](CC(C)C)NC(=O)[C@H](CC(C)C)NC(=O)[C@H](CCC(N)=O)NC1=O [sTIP-05] (Ac-KKRYSR[R5]QLL[R5]F-NH2; staple 7-11) = 0.094
